# methodNotes: Bioavailability on oral administration
# experimentalContext: in vivo, orally administered, read-out: bioavailability (BA)
observable: bioavailability

Query: May I ask what bioavailability has been recorded for CC(C)(C)OC(=O)N1CSC[C@H]1C(=O)N[C@@H](CSCC1CCCCC1)C(=O)NC1CCN(Cc2ccccc2)CC1 ?
Reply: ~0.2%
